molecular target: Rap guanine nucleotide exchange factor 4 (Homo sapiens) (UniProt Q8WZA2); test: Confirmatory qHTS for agonist of cAMP-regulated guanine nucleotide exchange factor 4 (EPAC2) (AID 1645884); conditions: EPAC2 GEF activity, Rap1B-BODIPY-GDP fluorescence; series mostly up to 154 µM;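 further: nucleotide exchange releases bodipy-GDP from Rap1 and this lowers its fluorescence; nearly all actives have a fitted effect of over 65% in size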
Sequence (Q8WZA2 whole entry, looked up): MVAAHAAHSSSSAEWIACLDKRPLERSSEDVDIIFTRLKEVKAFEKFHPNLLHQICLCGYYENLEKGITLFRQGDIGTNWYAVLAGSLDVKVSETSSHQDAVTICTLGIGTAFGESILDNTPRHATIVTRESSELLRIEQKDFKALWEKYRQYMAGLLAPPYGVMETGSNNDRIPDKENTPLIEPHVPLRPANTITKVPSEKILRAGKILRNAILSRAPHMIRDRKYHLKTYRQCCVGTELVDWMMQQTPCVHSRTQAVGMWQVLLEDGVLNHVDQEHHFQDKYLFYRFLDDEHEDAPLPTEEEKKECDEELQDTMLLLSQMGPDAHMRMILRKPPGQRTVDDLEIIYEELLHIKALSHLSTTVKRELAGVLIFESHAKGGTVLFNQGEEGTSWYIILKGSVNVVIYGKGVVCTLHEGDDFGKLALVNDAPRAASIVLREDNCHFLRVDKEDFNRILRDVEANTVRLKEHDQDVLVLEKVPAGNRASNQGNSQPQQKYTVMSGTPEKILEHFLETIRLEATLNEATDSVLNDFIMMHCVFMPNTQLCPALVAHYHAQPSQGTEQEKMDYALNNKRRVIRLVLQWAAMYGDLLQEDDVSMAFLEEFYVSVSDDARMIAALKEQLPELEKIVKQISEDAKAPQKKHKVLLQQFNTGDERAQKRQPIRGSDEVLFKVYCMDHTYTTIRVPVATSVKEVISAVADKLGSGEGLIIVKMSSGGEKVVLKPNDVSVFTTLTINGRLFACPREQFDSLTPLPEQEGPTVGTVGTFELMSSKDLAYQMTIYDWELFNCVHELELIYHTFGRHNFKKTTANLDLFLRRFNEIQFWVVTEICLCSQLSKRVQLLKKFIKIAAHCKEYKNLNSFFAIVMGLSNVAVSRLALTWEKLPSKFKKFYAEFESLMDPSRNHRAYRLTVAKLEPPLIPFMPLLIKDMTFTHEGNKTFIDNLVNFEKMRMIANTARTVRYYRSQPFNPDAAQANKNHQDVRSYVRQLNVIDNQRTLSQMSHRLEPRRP
Inconclusive results are not listed. The source made the active and inactive calls. The call rests on the fitted dose curve; in most records, active means well fitted activation curve with a large enough effect; inconclusive means small, poorly fitted or top-dose-only effect; inactive means no such curve, though single readings can be large or run the other way.

| structure_as_smiles | assayed_system | activation |
| --- | --- | --- |
| Nc1ncc(Br)cc1S(=O)(=O)Nc1cc(C(F)(F)F)cc(C(F)(F)F)c1 | Rap guanine nucleotide exchange factor 4 (Homo sapiens) (UniProt Q8WZA2) | inactive |
| CC(C)C[C@H]1COCCS(=O)(=O)N1Cc1cccc(C(F)(F)F)c1 | Rap guanine nucleotide exchange factor 4 (Homo sapiens) (UniProt Q8WZA2) | inactive |
| COc1ccc(N2CCN(CCCNC(=O)c3ccc4nc(CCc5ccccc5)oc4c3)CC2)cc1 | Rap guanine nucleotide exchange factor 4 (Homo sapiens) (UniProt Q8WZA2) | inactive |
